The measurements presented in this section are drawn from patent US20220096516A1.

Fold of changes in relative LHPP mRNA expression level: recorded values
# System: LHPP gene
# procedure summary: High-throughput screening of saRNAs targeting LHPP promoter: LHPP mRNA by one-step RT-qPCR in Huh7 cells
# Assay type: cell-based, human
# measurement parameters: 10 nM saRNA, 72 hours, relative to control (Mock)
d = 2'-deoxy (DNA); r = 2'-OH (RNA)
parameter: Fold of changes in relative LHPP mRNA expression level (fold)

[
  {
    "substance": "RAG7-722: saRNA duplex; sense UGUGAUAGUCCCGUUUUCUTT (SEQ ID NO: 135), antisense AGAAAACGGGACUAUCACATT (SEQ ID NO: 299) (sugars from the 5' end r19 d2, backbone not given here)",
    "value reported": 1.15
  },
  {
    "substance": "RAG7-893: saRNA duplex; sense AUGUUGGACCAGAAGUAAATT (SEQ ID NO: 14), antisense UUUACUUCUGGUCCAACAUTT (SEQ ID NO: 178) (sugars from the 5' end r19 d2, backbone not given here)",
    "value reported": 1.63
  },
  {
    "substance": "RAG7-696: saRNA duplex; sense CCAGGUCCUAUGCAUCCUCTT (SEQ ID NO: 17), antisense GAGGAUGCAUAGGACCUGGTT (SEQ ID NO: 181) (sugars from the 5' end r19 d2, backbone not given here)",
    "value reported": 1.58
  },
  {
    "substance": "RAG7-133: saRNA duplex; sense GCUCUUUGUCCGCUGAUCUTT (SEQ ID NO: 1), antisense AGAUCAGCGGACAAAGAGCTT (SEQ ID NO: 165) (sugars from the 5' end r19 d2, backbone not given here)",
    "value reported": 2.54
  }
]
